CREATINE PHOSPHOKINASE: recorded values
species on record: Rattus norvegicus; assay: DrugMatrix - Regimen: Daily Repeat; assay type: toxicity, organism-based, Sprague-Dawley; parameters: regimen Daily Repeat, gender Male, age 6-8 weeks; conditions: in vivo, po, 0 mg/kg, 72 h, tissue Plasma, route oral GAVAGE, dose level Control, time 3 day, vehicle 100 % WATER
Answer format: numeric, u/L implied, no suffix.

Answered cases to consult:
* c1ccc([C@H]2CN3CCSC3=N2)cc1 | 532.5
* NCCCCCC(=O)O | 503
* C[C@H](CS)C(=O)N1CCC[C@H]1C(=O)O | 1308.83

Prompt: Any idea what CREATINE PHOSPHOKINASE was measured for C=CCC1(C(C)CCC)C(=O)NC(=O)NC1=O (stereo not given) ?
Completion: 576.83

Prompt: Any idea what CREATINE PHOSPHOKINASE was measured for Cc1onc(-c2ccccc2Cl)c1C(=O)N[C@@H]1C(=O)N2[C@@H]1SC(C)(C)[C@@H]2C(=O)O ?
Completion: 503

Prompt: Any idea what CREATINE PHOSPHOKINASE was measured for C[C@H]1c2cccc(O)c2C(=O)C2=C(O)[C@]3(O)C(=O)C(C(N)=O)=C(O)[C@@H](N(C)C)[C@@H]3[C@@H](O)[C@@H]21.O ?
Completion: 372.83

Prompt: Any idea what CREATINE PHOSPHOKINASE was measured for CNNCc1ccc(C(=O)NC(C)C)cc1 ?
Completion: 228.33

Prompt: Any idea what CREATINE PHOSPHOKINASE was measured for COc1cc2nc(N3CCN(C(=O)C4COc5ccccc5O4)CC3)nc(N)c2cc1OC (stereo not given) ?
Completion: 372.83

Prompt: Any idea what CREATINE PHOSPHOKINASE was measured for CC(O)CO (stereo not given) ?
Completion: 503

Prompt: Any idea what CREATINE PHOSPHOKINASE was measured for Nc1c2c(nc3ccccc13)CCCC2 ?
Completion: 139.5

* * *

organism: Rattus norvegicus; assay: DrugMatrix - Regimen: Daily Repeat; format: toxicity, organism-based, Sprague-Dawley; parameters: regimen Daily Repeat, gender Male, age 6-8 weeks; conditions: in vivo, po, 0 mg/kg, 120 h, tissue Blood, route oral GAVAGE, dose level Control, time 5 day, vehicle .5 % CMC
Record yes (1) whenever ABSOLUTE LYMPHOCYTE is at 10000 CELLS/uL or higher; record no (0) when lower.

- CN1CCN(CCCN2c3ccccc3Sc3ccc(Cl)cc32)CC1 [PROCHLORPERAZINE]: yes (1)

Prompt: Does the reported ABSOLUTE LYMPHOCYTE for CC(C)(C)NC(=O)[C@@H]1C[C@@H]2CCCC[C@@H]2CN1C[C@@H](O)[C@H](Cc1ccccc1)NC(=O)[C@H](CC(N)=O)NC(=O)c1ccc2ccccc2n1 fall at or above the 10000 CELLS/uL mark?
Completion: yes (1)

Prompt: Does the reported ABSOLUTE LYMPHOCYTE for CCn1cc(C(=O)O)c(=O)c2cc(F)c(N3CCNCC3)cc21 [NORFLOXACIN] fall at or above the 10000 CELLS/uL mark?
Completion: yes (1)

Prompt: Does the reported ABSOLUTE LYMPHOCYTE for ClC(Br)Br [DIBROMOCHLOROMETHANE] fall at or above the 10000 CELLS/uL mark?
Completion: no (0)

Prompt: Does the reported ABSOLUTE LYMPHOCYTE for COc1nc(C)nc(Cl)c1N=C1NCCN1 [MOXONIDINE] fall at or above the 10000 CELLS/uL mark?
Completion: yes (1)

Prompt: Does the reported ABSOLUTE LYMPHOCYTE for Cc1ccc(/N=C/N(C)/C=N/c2ccc(C)cc2C)c(C)c1 [AMITRAZ] fall at or above the 10000 CELLS/uL mark?
Completion: yes (1)

Prompt: Does the reported ABSOLUTE LYMPHOCYTE for ClC(Cl)Br [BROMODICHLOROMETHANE] fall at or above the 10000 CELLS/uL mark?
Completion: no (0)

Prompt: Does the reported ABSOLUTE LYMPHOCYTE for CCCN1C[C@H](CSC)C[C@@H]2c3cccc4[nH]cc(c34)C[C@H]21 [PERGOLIDE] fall at or above the 10000 CELLS/uL mark?
Completion: yes (1)

* * *

SODIUM: recorded values
species: Rattus norvegicus; assay: DrugMatrix - Regimen: Daily Repeat; type: toxicity, organism-based, Sprague-Dawley; parameters: regimen Daily Repeat, gender Male, age 6-8 weeks; settings: in vivo, po, 0 mg/kg, 120 h, tissue Plasma, route oral GAVAGE, dose level Control, time 5 day, […]
Answer format: numeric, MEQ/L implied, no suffix.

Answered cases to consult:
• CCOC(=O)C1=C(COCCN)NC(C)=C(C(=O)OC)C1c1ccccc1Cl (centres undefined) = 126.88
• OC(Cn1cncn1)(Cn1cncn1)c1ccc(F)cc1F = 139.5
• Cc1ccc(-c2cc(C(F)(F)F)nn2-c2ccc(S(N)(=O)=O)cc2)cc1 = 139.5
• O=C(O)CCCc1ccc(N(CCCl)CCCl)cc1 = 139.5
• CN(C)c1nc(N(C)C)nc(N(C)C)n1 = 126.88
• CCC(C)n1ncn(-c2ccc(N3CCN(c4ccc(OCC5COC(Cn6cncn6)(c6ccc(Cl)cc6Cl)O5)cc4)CC3)cc2)c1=O (centres undefined) = 139.5
• O=c1oc2ccccc2c(O)c1Cc1c(O)c2ccccc2oc1=O = 143.93
• O=NN(CCCl)C(=O)NC1CCCCC1 = 126.88

Prompt: Any idea what SODIUM was measured for Cc1noc(NS(=O)(=O)c2ccc(N)cc2)c1C ?
Completion: 142.2

* * *

species on record: Rattus norvegicus; assay: DrugMatrix - Regimen: Daily Repeat; type: toxicity, organism-based, Sprague-Dawley; design: regimen Daily Repeat, gender Male, age 6-8 weeks; conditions: in vivo, po, 0 mg/kg, 120 h, tissue Plasma, route oral GAVAGE, dose level Control, time 5 day, vehicle .5 % CMC
outcome-measure: URIC ACID
Quick note: unit goes after the number.

Answered cases to consult:
* ClC(Br)Br [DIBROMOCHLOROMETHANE] | 1 mg/dL
* CC(C)(C)NC(=O)[C@@H]1C[C@@H]2CCCC[C@@H]2CN1C[C@@H](O)[C@H](Cc1ccccc1)NC(=O)[C@H](CC(N)=O)NC(=O)c1ccc2ccccc2n1 | 1.83 mg/dL
* Nc1ccn([C@H]2CC[C@@H](CO)O2)c(=O)n1 [ZALCITABINE] | 0.98 mg/dL
* CN1CCN(CCCN2c3ccccc3Sc3ccc(Cl)cc32)CC1 [PROCHLORPERAZINE] | 1.98 mg/dL

Turning now to a further record.
Prompt: Any idea what URIC ACID was measured for Cc1ccc(/N=C/N(C)/C=N/c2ccc(C)cc2C)c(C)c1 [AMITRAZ] ?
Completion: 1.67 mg/dL

* * *

species on record: Rattus norvegicus; experiment: DrugMatrix - Regimen: Daily Repeat; type: toxicity, organism-based, Sprague-Dawley; set-up: regimen Daily Repeat, gender Male, age 6-8 weeks; conditions: in vivo, po, 0 mg/kg, 72 h, tissue Blood, route oral GAVAGE, dose level Control, time 3 day, vehicle .5 % CMC
outcome-measure: MEAN CORPUSCULAR HEMOGLOBIN (pg)
Answer format: numeric, pg implied, no suffix.

Prompt: Any idea what MEAN CORPUSCULAR HEMOGLOBIN was measured for Cc1ccc2cc3c(ccc4ccccc43)c3c2c1CC3 ?
Completion: 20.2

Prompt: Any idea what MEAN CORPUSCULAR HEMOGLOBIN was measured for COc1nc(C)nc(Cl)c1N=C1NCCN1 ?
Completion: 24.6

Prompt: Any idea what MEAN CORPUSCULAR HEMOGLOBIN was measured for CCn1cc(C(=O)O)c(=O)c2cc(F)c(N3CCNCC3)cc21 ?
Completion: 24.67

Prompt: Any idea what MEAN CORPUSCULAR HEMOGLOBIN was measured for NC1=NC(=O)C(c2ccccc2)O1 (stereo not given) ?
Completion: 23.64

Prompt: Any idea what MEAN CORPUSCULAR HEMOGLOBIN was measured for CCCCc1oc2ccccc2c1C(=O)c1cc(I)c(OCCN(CC)CC)c(I)c1 ?
Completion: 23.58

Prompt: Any idea what MEAN CORPUSCULAR HEMOGLOBIN was measured for O=C(CCCN1CC=C(n2c(=O)[nH]c3ccccc32)CC1)c1ccc(F)cc1 ?
Completion: 19.57

Prompt: Any idea what MEAN CORPUSCULAR HEMOGLOBIN was measured for Nc1ccn([C@H]2CC[C@@H](CO)O2)c(=O)n1 ?
Completion: 20.35

* * *

species on record: Rattus norvegicus; test: DrugMatrix - Regimen: Daily Repeat; type: toxicity, organism-based, Sprague-Dawley; design: regimen Daily Repeat, gender Male, age 6-8 weeks; details: in vivo, po, 0 mg/kg, 72 h, tissue Plasma, route oral GAVAGE, dose level Control, time 3 day, […]
BLOOD UREA NITROGEN: recorded values
Answer format: numeric, mg/dL implied, no suffix.

• CC(C)(Oc1ccc(Cl)cc1)C(=O)O [CLOFIBRIC ACID] = 15.83
• O=c1oc2ccccc2c(O)c1Cc1c(O)c2ccccc2oc1=O [DICUMAROL] = 12.17
• CN(C)c1nc(N(C)C)nc(N(C)C)n1 [ALTRETAMINE] = 12.33
• Cc1ccc(-c2cc(C(F)(F)F)nn2-c2ccc(S(N)(=O)=O)cc2)cc1 [CELECOXIB] = 14.33
• CCC(C)n1ncn(-c2ccc(N3CCN(c4ccc(OCC5COC(Cn6cncn6)(c6ccc(Cl)cc6Cl)O5)cc4)CC3)cc2)c1=O (centres undefined) [ITRACONAZOLE] = 14.33
• C[C@H]1O[C@@H](O[C@H]2[C@@H](O)C[C@H](O[C@H]3[C@@H](O)C[C@H](O[C@H]4CC[C@@]5(C)[C@H](CC[C@@H]6[C@@H]5C[C@@H](O)[C@]5(C)[C@@H](C7=CC(=O)OC7)CC[C@]65O)C4)O[C@@H]3C)O[C@@H]2C)C[C@H](O)[C@@H]1O [DIGOXIN] = 14.33

Prompt: Any idea what BLOOD UREA NITROGEN was measured for Cc1noc(NS(=O)(=O)c2ccc(N)cc2)c1C [SULFISOXAZOLE] ?
Completion: 13.17

Prompt: Any idea what BLOOD UREA NITROGEN was measured for C[C@@H]1CN(c2c(F)c(N)c3c(=O)c(C(=O)O)cn(C4CC4)c3c2F)C[C@H](C)N1 [SPARFLOXACIN] ?
Completion: 12.33

Prompt: Any idea what BLOOD UREA NITROGEN was measured for CC(C)C(=O)Nc1ccc([N+](=O)[O-])c(C(F)(F)F)c1 [FLUTAMIDE] ?
Completion: 14
